# experimental-target: LCK (Homo sapiens, UniProt P06239)
# Sequence (P06239 whole entry): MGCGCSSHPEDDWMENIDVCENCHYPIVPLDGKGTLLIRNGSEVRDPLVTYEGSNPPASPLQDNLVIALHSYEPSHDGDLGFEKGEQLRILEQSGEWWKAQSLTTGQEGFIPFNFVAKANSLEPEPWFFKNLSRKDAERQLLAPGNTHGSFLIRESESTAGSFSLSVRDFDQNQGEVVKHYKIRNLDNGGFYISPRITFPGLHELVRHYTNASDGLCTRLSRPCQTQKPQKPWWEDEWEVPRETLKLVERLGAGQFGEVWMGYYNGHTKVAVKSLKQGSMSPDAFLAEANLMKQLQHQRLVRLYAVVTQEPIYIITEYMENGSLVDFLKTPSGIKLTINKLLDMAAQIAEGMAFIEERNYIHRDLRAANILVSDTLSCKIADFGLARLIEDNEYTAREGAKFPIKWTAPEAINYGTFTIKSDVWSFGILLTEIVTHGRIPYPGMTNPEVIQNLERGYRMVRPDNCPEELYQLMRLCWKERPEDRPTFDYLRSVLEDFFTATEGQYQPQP
# assay-name: Inhibition of a panel of kinases, in vitro HotSpot kinase assay: LCK
# Type: biochemical
# run-conditions: D-compounds panel data; 1 μM ATP; read-out: IC50 LCK
assay-endpoint: IC50

INSERT INTO assay_data (compound_smiles, experimental_target, result) VALUES
  ('C[C@@H]1[C@H](NC(=O)c2ccc(C3CC3)cc2)CCCN1c1cnc(C(N)=O)c(Nc2cnn(C3CCN(C)CC3)c2)n1', 'LCK (Homo sapiens, UniProt P06239)', '10 to 100 nM'),
  ('C[C@@H]1C[C@@H](NC(=O)c2ccc(C3CC3)cc2)CN(c2cnc(C(N)=O)c(Nc3cnn(C)c3)n2)C1', 'LCK (Homo sapiens, UniProt P06239)', '1000 to 10000 nM'),
  ('C[C@@H]1[C@H](NC(=O)N(C)C)CCCN1c1cnc(C(N)=O)c(Nc2ccc(N3CCC(F)(F)CC3)cc2)n1', 'LCK (Homo sapiens, UniProt P06239)', '100 to 1000 nM'),
  ('C[C@@H]1[C@H](NC(=O)c2ccc(C3CC3)cc2F)CCCN1c1cnc(C(N)=O)c(Nc2cc(CN3CCCCC3)ns2)n1', 'LCK (Homo sapiens, UniProt P06239)', '10 to 100 nM'),
  ('C[C@@H]1[C@H](NC(=O)c2ccc(N(C)C)cn2)CCCN1c1cnc(C(N)=O)c(Nc2cnn(C)c2)n1', 'LCK (Homo sapiens, UniProt P06239)', '100 to 1000 nM'),
  ('C[C@@H]1[C@H](NC(=O)c2ccc3c(c2)CCC(C)(C)O3)CCCN1c1cnc(C(N)=O)c(Nc2cnn(C)c2)n1', 'LCK (Homo sapiens, UniProt P06239)', '100 to 1000 nM'),
  ('C[C@@H]1[C@H](NC(=O)c2ccc(C3CC3)cc2)CCCN1c1cnc(C(N)=O)c(Nc2ccc3nccn3c2)n1', 'LCK (Homo sapiens, UniProt P06239)', '1000 to 10000 nM');

Source listed as patent US20210070748A1.
